# Tested on: Streptococcus pneumoniae Stpn_Erm S 4297
# PROCEDURE SUMMARY: MIC, broth microdilution (NCCLS)
# Assay type: cell-based
# TEST CONTEXT: strain ID Q; broth microdilution; in µg/mL (unit assumed)
# Method: Strains. The bacterial isolates listed in Table 4 were cultivated from −70° C. frozen stocks by two consecutive overnight passages (P1, P2) at 35° C. on 5% blood agar (Remel, Lenexa, Kans.). Chocolate agar (Remel) is used for Haemophilus influenzae. H. influenzae and Streptococcus pneumoniae are incubated in 5-10% CO2 Drug Stock Preparation. […] Susceptibility Testing. MICs are determined by the broth microdilution method in accordance with the NCCLS guidelines. […]
Overview of reported MIC, strain ID Q across a group of compounds:

1. C=C[C@]12OC(=O)N(CCCCn3cnc(-c4cnccc4OC)c3)[C@@H]1[C@@H](C)C(=O)[C@H](C)C[C@](C)(OC)[C@H](OC1O[C@H](C)C[C@H](N(C)C)[C@H]1O)[C@@H](C)C(=O)[C@@H](C)C(=O)O[C@@H]2CC (stereo partly drawn) : 0.2
2. C#C[C@]12OC(=O)N(CCCCn3cnc(-c4ccc(Cl)nc4)c3)[C@@H]1[C@@H](C)C(=O)[C@H](C)C[C@](C)(OC)[C@H](OC1O[C@H](C)C[C@H](N(C)C)[C@H]1O)[C@@H](C)C(=O)[C@@H](C)C(=O)O[C@@H]2CC (stereo partly drawn) : 0.1
3. CC[C@H]1OC(=O)[C@H](C)C(=O)[C@H](C)[C@@H](OC2O[C@H](C)C[C@H](N(C)C)[C@H]2O)[C@@](C)(OC)C[C@@H](C)C(=O)[C@H](C)[C@@H]2[C@@H]1OC(=O)N2CCCCn1cnc(-c2ccc(Cl)nc2)c1 (stereo partly drawn) : 0.1

Record C=C[C@]12OC(=O)N(CCCCn3cnc(-c4cnc(Cl)c(C)c4)c3)[C@@H]1[C@@H](C)C(=O)[C@H](C)C[C@](C)(OC)[C@H](OC1O[C@H](C)C[C@H](N(C)C)[C@H]1O)[C@@H](C)C(=O)[C@@H](C)C(=O)O[C@@H]2CC (stereo partly drawn) . Reported MIC, strain ID Q: 0.2

Record CC[C@H]1OC(=O)[C@H](C)C(=O)[C@H](C)[C@@H](O[C@@H]2O[C@H](C)C[C@H](N(C)C)[C@H]2O)[C@](C)(OC)C[C@@H](C)C(=O)[C@H](C)[C@H]2N(CCCCn3cnc(-c4cccnc4)c3)C(=O)O[C@]12C [Telithromycin, telithromycin, reference compound] . Reported MIC, strain ID Q: 0.1-0.2

Record C#C[C@]12OC(=O)N(CCCCn3cnc(-c4ccc(OC)nc4)c3)[C@@H]1[C@@H](C)C(=O)[C@H](C)C[C@](C)(OC)[C@H](OC1O[C@H](C)C[C@H](N(C)C)[C@H]1O)[C@@H](C)C(=O)[C@@H](C)C(=O)O[C@@H]2CC (stereo partly drawn) . Reported MIC, strain ID Q: 0.2
